# System under test: full-length NS3 HCV protease 1b tethered with NS4A cofactor (Hepatitis C virus genotype 1b, UniProt Q9WMX2)
# Sequence (Q9WMX2 1013-1657, looked up, natural form): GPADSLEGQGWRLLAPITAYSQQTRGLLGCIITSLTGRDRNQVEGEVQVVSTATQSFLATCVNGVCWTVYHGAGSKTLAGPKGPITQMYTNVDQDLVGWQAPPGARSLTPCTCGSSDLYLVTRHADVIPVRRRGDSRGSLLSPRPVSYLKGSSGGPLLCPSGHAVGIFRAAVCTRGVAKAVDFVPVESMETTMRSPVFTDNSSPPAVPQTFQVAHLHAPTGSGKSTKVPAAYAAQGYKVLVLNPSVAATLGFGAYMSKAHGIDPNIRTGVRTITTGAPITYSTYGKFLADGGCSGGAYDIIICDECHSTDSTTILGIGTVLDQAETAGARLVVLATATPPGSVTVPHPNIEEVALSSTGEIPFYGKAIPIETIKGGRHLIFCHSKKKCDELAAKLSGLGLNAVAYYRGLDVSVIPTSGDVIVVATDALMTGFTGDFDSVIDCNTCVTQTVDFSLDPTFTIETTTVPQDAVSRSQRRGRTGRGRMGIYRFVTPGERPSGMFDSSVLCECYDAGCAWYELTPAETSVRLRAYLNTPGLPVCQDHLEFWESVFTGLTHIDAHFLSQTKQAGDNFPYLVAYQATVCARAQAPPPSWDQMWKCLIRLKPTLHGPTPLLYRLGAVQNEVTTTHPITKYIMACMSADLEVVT
Assignment: determine reported pIC50 for the given compounds.
Answers are plain numbers, as −log10 of the molar value.

Check out these entries, answers already filled in.
Which pIC50 reading was recorded for the compound COc1c(-c2cccc3ccccc23)cnn(C2CC3C(=O)NC4(C(=O)NS(=O)(=O)C5CC5)CC4C=CCCCCCC(NC(=O)c4cccs4)C(=O)N3C2)c1=O (stereo not drawn) ?
9.70

Which pIC50 reading was recorded for the compound COc1c(-c2cccc3ccccc23)cnn(C2CC3C(=O)NC4(C(=O)NS(=O)(=O)C5CC5)CC4C=CCCCCCC(NC(=O)OC4CCCC4)C(=O)N3C2)c1=O (stereo not drawn) ?
9.40

Alright, here's another compound for you.
Which pIC50 reading was recorded for the compound COc1c(-c2cccc3ccccc23)cnn([C@@H]2C[C@H]3C(=O)N[C@]4(C(=O)NS(=O)(=O)C5CC5)C[C@H]4/C=C\CCCCC[C@H](NC(=O)OC(C)(C)C)C(=O)N3C2)c1=O ?
10.00
